Can you tell me EC50 for the items I'm about to list?
target.entity: Stimulator of interferon genes protein (Homo sapiens, UniProt Q86WV6)
protocol.details: Agonist activity at STING in PMA-differentiated wildtype human THP1-Blue ISG cells harboring IRF-inducible SEAP reporter construct incubated for 24 hrs by QUANTI-Blue assay
Sequence (Q86WV6 whole entry, the tested form may be a part): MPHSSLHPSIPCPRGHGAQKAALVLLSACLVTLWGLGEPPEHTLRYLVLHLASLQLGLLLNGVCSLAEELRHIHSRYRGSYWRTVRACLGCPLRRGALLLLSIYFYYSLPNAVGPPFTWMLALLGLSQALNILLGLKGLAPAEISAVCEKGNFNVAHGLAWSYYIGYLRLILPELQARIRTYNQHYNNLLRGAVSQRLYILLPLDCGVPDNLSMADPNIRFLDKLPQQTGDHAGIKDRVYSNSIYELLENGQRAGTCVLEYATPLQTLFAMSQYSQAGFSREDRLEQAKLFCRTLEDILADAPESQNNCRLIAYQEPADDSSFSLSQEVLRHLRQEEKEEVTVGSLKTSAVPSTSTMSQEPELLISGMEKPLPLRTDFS
Give bare numbers, in µM.

Go through the items and report each one's EC50.
1. N#Cc1ccn(-c2ccc(C(=O)Nc3cc(C#CC4CC4)c(F)cc3C(=O)O)nn2)c1
2. COc1cc(C(=O)O)c(NC(=O)c2ccc(-n3ccc(C#N)c3)nn2)cc1F
3. CCc1cc(C(=O)O)c(NC(=O)c2ccc(-n3ccc(C#N)c3)nn2)cc1F
4. N#Cc1ccn(-c2ccc(C(=O)Nc3cc(Br)c(F)cc3C(=O)O)nn2)c1
5. C#Cc1cc(NC(=O)c2ccc(-n3ccc(C#N)c3)nn2)c(C(=O)O)cc1F
6. N#Cc1ccn(-c2ccc(C(=O)Nc3cc(F)ccc3C(=O)O)nn2)c1
7. N#Cc1ccn(-c2ccc(C(=O)Nc3cc(F)c(Cl)cc3C(=O)O)nn2)c1
8. N#Cc1ccn(-c2ccc(C(=O)Nc3cc(Cl)c(Br)cc3C(=O)O)nn2)c1

[69.8, 44.3, 34.9, 4.86, 1.19, 48.1, 42.2, 5.11]

* * *

target.entity: Stimulator of interferon genes protein (Homo sapiens)
protocol.details: Competitive inhibition of 5-FAM labelled diABZI binding to recombinant wildtype human STING R232 variant C-terminal domain (139 to 378 residues) expressed in Escherichia coli BL21 (DE3) cells incubated for 10 mins by fluorescence polarization assay
Sequence (Q86WV6 whole entry, looked up, stated change not applied, the tested form may be a part): as the sequence (Q86WV6 whole entry, the tested form may be a part) above
Consider the following molecules; for each one, report its IC50.
Give bare numbers, in nM.

N#Cc1ccn(-c2ccc(C(=O)Nc3cc(Cl)c(Cl)cc3C(=O)O)nn2)c1 : 2420
N#Cc1ccn(-c2ccc(C(=O)Nc3cc(Br)c(Cl)cc3C(=O)O)nn2)c1 : 1980
C#Cc1cc(NC(=O)c2ccc(-n3ccc(C#N)c3)nn2)c(C(=O)O)cc1F : 3310

Next, consider the following molecule.
Entry CCCn1c(NC(=O)c2cc(C)nn2C)nc2cc(C(N)=O)cc(OC3COC3)c21 : reported IC50 = ?
3160

* * *

target.entity: Stimulator of interferon genes protein (Mus musculus)
protocol.details: Binding affinity to recombinant 6-His tagged mouse STING C-terminal domain (144 to 378 residues) expressed in Escherichia coli BL21 (DE3) cells assessed as thermal stabilization by measuring change in melting temperature at 50 uM incubated at 25 to 95 degreeC for 45 mins by SYPRO orange dye based fluorescence analysis
Tag: 1 if measured ΔTm is not below 7 °C, -1 if it is.

The examples below pair each entry with its known result.
N#Cc1ccn(-c2ccc(C(=O)Nc3cc(Cl)c(Cl)cc3C(=O)O)nn2)c1 : -1
C#Cc1cc(NC(=O)c2ccc(-n3ccc(C#N)c3)nn2)c(C(=O)O)cc1F : 1
O=C(Nc1cc(F)c(F)cc1C(=O)O)c1ccc(-n2ccnc2)nn1 : 1

Decide: ΔTm of CCCn1c(NC(=O)c2cc(C)nn2C)nc2cc(C(N)=O)cc(OC3COC3)c21 >= 7 °C?
-1

* * *

protocol.details: Competitive inhibition of 5-FAM labelled diABZI binding to recombinant human STING G230A and R293Q variant C-terminal domain (139 to 378 residues) expressed in Escherichia coli BL21 (DE3) cells incubated for 10 mins by fluorescence polarization assay
assay.readout: IC50 (nM)
One number for each entry, in nM.

CCCn1c(NC(=O)c2cc(C)nn2C)nc2cc(C(N)=O)cc(OC3COC3)c21 : 3660
N#Cc1ccn(-c2ccc(C(=O)Nc3cc(Br)c(Cl)cc3C(=O)O)nn2)c1 : 700
O=C(Nc1cc(F)c(F)cc1C(=O)O)c1ccc(-n2ccnc2)nn1 : 730
C#Cc1cc(NC(=O)c2ccc(-n3ccc(C#N)c3)nn2)c(C(=O)O)cc1F : 910

Could you now look at the following molecule, please?
Using the record for N#Cc1ccn(-c2ccc(C(=O)Nc3cc(Cl)c(Cl)cc3C(=O)O)nn2)c1 , report its IC50.
760
